# measuredOn: Topoisomerase I (Bos taurus) (UniProt Q2HPH0)
# Sequence (Q2HPH0 as listed by the source): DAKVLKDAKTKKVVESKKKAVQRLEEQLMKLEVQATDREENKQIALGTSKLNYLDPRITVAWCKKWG
# measurementDescription: Inhibition of calf thymus topoisomerase 1 assessed as increase in nicked DNA at 10 uM using supercoiled pBR322 DNA incubated for 0.5 hrs by ethidium bromide staining based DNA-cleavage assay
Calls of active or inactive are those of the source. The rule behind the calls is not given here.
Entry note: the call must match one of class 1 for active, class 0 for inactive

{"compound": "CCCN(C(=O)[C@H]1CCC[C@@H](C(=O)N(CCC)[C@H]2CC3=CC(=O)O[C@@]34C[C@@H]2N2CCCC[C@@H]24)C1)[C@@H]1CC2=CC(=O)O[C@@]23C[C@@H]1N1CCCC[C@@H]13", "measuredOn": "Topoisomerase I (Bos taurus) (UniProt Q2HPH0)", "classification": "class 0"}

Q: What did the test return for CCCN(C(=O)c1cccc(C(=O)N(CCC)[C@H]2CC3=CC(=O)O[C@@]34C[C@@H]2N2CCCCC24)c1)C1CC2=CC(=O)O[C@@]23C[C@@H]1N1CCCC[C@@H]13 (single isomer, unassigned) ?
Result: class 1

Q: Could you kindly confirm the outcome this assay logged for `CCCN(C(=O)CCCCC(=O)N(CCC)[C@H]1CC2=CC(=O)O[C@@]23C[C@@H]1N1CCCC[C@@H]13)[C@@H]1CC2=CC(=O)O[C@@]23C[C@@H]1N1CCCC[C@@H]13` ?
Result: class 0

Q: Dear colleague, could you share the recorded outcome for `CC[C@@]1(O)C(=O)OCc2c1cc1n(c2=O)Cc2cc3ccccc3nc2-1` when you have a moment?
Result: class 1

Q: Could you check what this test reported for `CCCN(C(=O)c1ccccc1)[C@H]1CC2=CC(=O)O[C@@]23C[C@@H]1N1CCCC[C@@H]13` ?
Result: class 0
